These measurements were taken from a melting point compilation (Tetko et al.; mined from patent text by program, amines drawn as free bases though some values may be those of a salt).

Recorded measurements of melting point, one per entry

[[record]]
compound = "CCN1C(=O)c2ccc(C(F)(F)F)cc2S(=O)(=O)c2ccccc21"
value_reported = "145 to 146 °C"


Form field melting point, entry CC(=O)N(c1ccc(C)c(C)c1)[C@H](C)C(=O)O : 156 to 159 °C

Documented melting point of Nc1c2c(nc3ccccc13)CCC=C2 : 178 to 179 °C

According to the records, this compound O=C(NCc1ccc(Cl)cc1)c1cn2c3c(cc(CN4CCOCC4)cc3c1=O)OC(CNCc1ccncc1)C2 (stereo unspecified) displays melting point of 164 to 167 °C

Lab note: CCOC(=O)c1cc2c(s1)-c1c(SC)sc(C(=O)OCC)c1CC2 gave melting point of 107 to 108 °C

Summary for this compound, CCOC(=O)C1C(=O)c2ccccc2OC1C(F)(F)F (stereo unspecified) : melting point is 80.2 to 84.9 °C
